Target: UniProt:P63073
Sequence (P63073 whole entry): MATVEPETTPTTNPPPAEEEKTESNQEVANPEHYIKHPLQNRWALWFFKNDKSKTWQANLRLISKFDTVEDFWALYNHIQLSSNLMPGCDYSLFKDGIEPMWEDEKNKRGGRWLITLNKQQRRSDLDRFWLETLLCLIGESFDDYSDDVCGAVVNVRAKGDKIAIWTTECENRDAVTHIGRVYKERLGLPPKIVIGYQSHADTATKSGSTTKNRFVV
Test: blockers of eIF4G binding by eIF4E – biochemical, TR-FRET, dose response (AID 855);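 further: potency for disrupting eIF4E binding to eIF4GI seen as loss of FRET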
Format: functional
Active and inactive are the calls of the source. How the calls were made is not given here.
test readout: IC50

compound	result
COc1ccc2c(c1)CC[C@@H]1[C@@H]2CC[C@]2(C)C(=O)CC[C@@H]12	> 64 µM (inactive)
CCN(CC)CCNC(=O)CCCCn1c(=S)[nH]c2c([nH]c3ccc(OC)cc32)c1=O	> 64 µM (inactive)
N#Cc1cccc(/N=c2\ssnc2Cl)c1	50 µM (inactive)
O=C1C(=Cc2ccc(Br)o2)C(=O)c2ccccc21	20.1 µM (active)
O=C(O)[C@@H](c1ccccc1)N1Cc2ccccc2C1=O	13.8 µM (active)
O=C(O)c1ccc2c(c1)C(=O)N(c1cccc(-c3nc4ccccc4s3)c1)C2=O	50 µM (inactive)
O=C(NCCN1CCOCC1)c1nn2c(c1Cl)NC(c1ccccc1)CC2C(F)(F)F (stereo not drawn)	> 64 µM (inactive)
CC(=O)Oc1ccc2c(c1)OC(c1ccccc1)CC21CC(C)(C)NC(=S)N1 (stereo not drawn)	> 64 µM (inactive)
